- test.summary: yeast display, Sf9 membrane polyspecificity reagent, FACS + sequencing; frameworks hold sequencing errors
measured.endpoint: polyreactivity (PSR sort gate)

These solved cases illustrate the format of a correct answer.
[
  {
    "residues": "QVQLVESGGGLVQAGGSLRLSCAASGRTFPNYVIGWYRQATGKERELVAAINSGGRTNYADSVKGRFTISRDNAKNTVYLQMNRLKQEDTAFYFCTKRGHPARLGYYYWGQGTQVTVSS",
    "polyreactivity (PSR sort gate)": "low polyreactivity"
  },
  {
    "residues": "QVQLVESGGGLVQAGGSLRLSCDASGRIFASNAMGWYRQAPGKERELVATIRRSGGSTYYADSVKGRFTISRDNAKNTVYLQMNSLKPEDTAVYYCNARMYGGYGWIYDYWRQGTQVTVSS",
    "polyreactivity (PSR sort gate)": "high polyreactivity"
  },
  {
    "residues": "QVQLVESGGRLVQAGGSLRLSCAASGFTFRYYAMGWYRQAPGKERELVAAINSGGSTNFADSVKGRFTISRDNAKNTVYLQMNSLKPEDTAVYYCAKRGRRGIVYLGSAEMDYWGQGTQVTVSS",
    "polyreactivity (PSR sort gate)": "low polyreactivity"
  },
  {
    "residues": "QVQLVESGGGLVQAGGSLRLSCAASGIIFRTYAMGWYRQAPGKERELVAAINSDGSTYYADSVKGRFTISRDNAKNTVYLQMNSLKPEDTAVYYCAAVVWRIHAYYWAVDGWYYYWGQGTQVTVSS",
    "polyreactivity (PSR sort gate)": "high polyreactivity"
  }
]

Next item in the queue.
[ask] // query polyreactivity (PSR sort gate) value for entry QVQLVESGGGLVQAGGSLRLSCAASGSTFKRNAMGWYRQAPGKERELVAAITSGGSTYYADSVKGRFTISRDNAKNTVYLQMNSLKPEDTAVYYCNKVRGAFYSHLFDYWGQGTQVTVSS
[reply] high polyreactivity

###

- test.summary: yeast display, Sf9 membrane polyspecificity reagent, FACS + sequencing; frameworks hold sequencing errors
measured.endpoint: polyreactivity (PSR sort gate)

The examples below pair each entry with its known result.
[
  {
    "residues": "QDQLVESGGGLVQAGGSLRLSCAASGFIFGTYAMGWYRQAPGKEREFVAAINWGGGRTYYADSVKGRFTISRDNAKNTVYLQMNSLKPEDTAVYYCAADFGLYYPRYGYWGQGTQVTVSS",
    "polyreactivity (PSR sort gate)": "high polyreactivity"
  },
  {
    "residues": "QVQLVESGGGLVQAGGSLRLSCAASGIIFGDNAMGWYRQAPGKERELVAAISSGGITYYADSVKGRFTISRDNAKNTVYLQMNSLKPEDTAVYYCAAGYYDFWYDYWGQGTQVTVSS",
    "polyreactivity (PSR sort gate)": "low polyreactivity"
  },
  {
    "residues": "QVQLVESGGGLVQAGGSLRLSSAASGSIFDSNALGWYRQARGKERELVAAISLSGGSTYYADSVKGRFTISRDNAKNTVYLQMKSLKPEDTAVYYCAKDGWYEYYWGQGTQVTVSS",
    "polyreactivity (PSR sort gate)": "low polyreactivity"
  },
  {
    "residues": "QVQLVESGGGLVQAGGSLRLSCAASGFTFYWYAMGWYRQAPGKERELVAAISNRGGSTYYADSVKGRFTISRDNAKNTVYLQMNSLKPEDTAVYYCATESRGVGAARYDYWGQGTQVTVSS",
    "polyreactivity (PSR sort gate)": "high polyreactivity"
  },
  {
    "residues": "QVQLVESGGGLVQAGGSLRLSCAASGSIFYHYAMGWYRQAPGKDRELVADITQSGGTTDYADSVKGRFTISRYNAKNTVYLQMNSLKPEDTAVYYCAADGDTTSPTYYIFWSGEFDYWGQGNQVTVSS",
    "polyreactivity (PSR sort gate)": "low polyreactivity"
  }
]

Batch: polyreactivity (PSR sort gate) for all items listed.
1. QVQLVESGGGLVQAGGSLRLSCAASGRTFQYNTMGWYRQAPGKERELVAAISWSGGRTYYADSVKGRFTISRDNAKNTVYLQMNSLKPEDTAVYYCAADGTPEIRDNYWGQGTQVTVSS
2. QQQLHESGGGLVQAGGSLRLSCAASGSISQAWYMGWYRQAPGKERELVAAINVGAITYYADIVKGRFSISRDNAKNTVFLPMNSLTPEDTAVYYCAVDQYSEAYYDYWGQGTQATVSS
3. QVQLVESGGGLVQAGGSLRLSCAASGFIFRYYAMGWYRQAPGKERELVAAITRGGSTYYADSVKGRFTISRDNAKNTVYLQMNSLKPEDTAVYYCAARLYTQYYYWGQGTQVTVSS
4. QVQLVESGGGLVQAGGSLRLSCAASGYIFPKNAIGWYRQAPWKERELVAAITGSGGSTYYADSVKGRFTISRDNAKNTVYLQMNSLKPEDTAVYYCAKRSWIEYDYWGQGTQVTVSS
5. QVQLVESGGGFVQAGGSLRLSCAASGRIFPEYSRGWYRQAPGKERELVASINSDGSTNYADSVKGRFTISRDNAKNTVYLQMNSLKPEDTAVYYCATEGSGTGIFISKFDYWGQGTQVTVSS

[reply]
high polyreactivity
high polyreactivity
high polyreactivity
low polyreactivity
low polyreactivity

Required: polyreactivity (PSR sort gate), one value per sequence below.
1. QVQLVESGGGLVQAGGSLRLSCAASGITFTVYAMGWYRQAPGKERELVAAINSVSSTNYADSVKGRFTISRDNAKNTVYLQMNSLKPEVTAVYYCAASYRKLPDKKRYGYWGQGTKVTVSS
2. QVQLVESGGGLVQAGGSLRLSCAASGFTIAKYAMGWYRQAPGKERELVAAISSSGGRTYYADSVKGRFTISRDNAKNTVYLQMNSLKPEDTAVYYCAADFSGPFDYWGQGTQVTVSS
3. QVHLVQSGGGLVQAGGSLRLSCAASGRTFYIYAMGCYRQAPGKERELVAAISWRGGSTYYANSVKGRFTISLDHAKYTVYLQMNSLKPEDTAVYYCAAEGAHVKWYRNWWEYDDWGQGTQVTVSS
4. QVQLVESGGGLVQAGGSLRLSCAASGRTFSAYTMGWYRQAPGKERELVAAITSGTSTYYADSVKGRFTISRDNAKNTVYLQMNSLKPEDTAVYYCNARDSGRWWHIGQSGEDYWGQGTQVTVSS
5. QVHLVESCGGLVQARGSLRLSCAASGSTIDYNSMGWYRLAPWKEREMVATITSSVGSTYYEDSVKGRYTISRDNAKNTVDLHMNCVKPEDTAVYYCAADYDYPDYYAPSWRRYTYWGQGTQVTVSS

[reply]
["high polyreactivity", "high polyreactivity", "high polyreactivity", "low polyreactivity", "low polyreactivity"]

I'm hoping you can list polyreactivity (PSR sort gate) for every sequence here, please.
1. QGQIVESWGGLVQAGGSLRLSCAASGTFFTYMGWYRQAPGKERELVAAIRNGGSTNYADSVKGRCTISGDNAKNTVYLQMHSLKPEDTAVYYCAARVTYSRGYRGGSRTKYDSWGQGTQVTVSS
2. QVQLVESGGGLVQAGGSLRLTGAASGRIFRSYAMGWYRQAPGKERELVASISGSTTYYADSVKGRFTISRDNAKNTVYLQMNSLKPEDTAVYYCAVKYDAWGYGYRHFDYWGQGTQVTVSS
3. QDQLVDSGGGLVQAGGSLRLSCAASGRIIFYYTMGSYSQAPGKESELVAAINSTGSTNYADSVKGRFTISRDNAKNTVYLQMNSLKPEDTAVYYCNAGTRYIFLYPPFLGAAFDYWGQGTQVTVSS
4. QVQLVESGGGLVQAGGSLRLSCAASGRTFRANTMGWYRQAPGKERELVAAISHSGGSTYYADSVKGRFTISRDNAKYTVYLQMISLKPEDTAVYYCATDGGSYSWASPRVDYWGQGTQVTVSS

[reply]
1. low polyreactivity
2. low polyreactivity
3. low polyreactivity
4. low polyreactivity

I need polyreactivity (PSR sort gate) for every entry listed below, if you could help.
1. QVQLVESGGGLVQAGGSLRLSCAASGFTFDFNAMGWSRQAPGKERELVAAISSGASTNYADSVKGRFTISRDNAKNTVYLQMNSLKPEDTAVYYCAARSRTPGWYSTISRKMYWGQGTQVTVSS
2. QVQLVESGGGLVQAGGSLRLSCAASGSIFRLYAMGWYRPAPGKERELVAAISRRGGSTNYADSVKGRFTISRDNAKNTVNLQMNSLKPEDTAVYYCNAVSKRSRYDYWGQGTQVTVSS

[reply]
1: high polyreactivity; 2: high polyreactivity

###

- test.summary: yeast display, Sf9 membrane polyspecificity reagent, FACS + sequencing; frameworks hold sequencing errors

[
  {
    "residues": "QVQLVESGGGLVQAGGGLRLSCAASGRTFYIYAMGWYRQAPGKERELVAAISWRGGSTYYADSVKGRFTISRDNAKNTGYLQMNSLKPEDTAVYYCAKVYARTVGWFNYWGQGTQVTVSS",
    "polyreactivity (PSR sort gate)": "high polyreactivity"
  },
  {
    "residues": "QVQLVESGGGLVQAGGSLRLSCAASGFIIHRYAMGWYRQAPGKERELVAVITSGGGSTYYADSVKGRFTISRDNAKNTVYLQMNSLKPEDTAVYYCAAYQPYNSRYRYDYWGQGTQVTVSS",
    "polyreactivity (PSR sort gate)": "high polyreactivity"
  }
]
